Entry source: patent US20090227575A1

# Test System: Human mTOR (Homo sapiens)
# Test: mTOR kinase assay (DELFIA format, purified enzyme)
# Format: biochemical
# Design: FLAG
# Test Conditions: read-out: TOR Kinase IC50
pIC50: −log10 of the molar value.
Value Kind: pIC50

# annotated cases, reported pIC50 shown
INSERT INTO measurements (molecule, test_system, reading) VALUES
  ('Cn1ccc2c3nc(-c4ccc(NC(=O)NCC(F)(F)F)cc4)nc(N4CCOCC4)c3ccc21 [Example 119]', 'Human mTOR (Homo sapiens)', 5.90),
  ('CCC(O)c1cccc(-c2nc(N3CCOCC3)c3ccc4c(ccn4C)c3n2)c1 (centres unmarked) [Example 25]', 'Human mTOR (Homo sapiens)', 5.52),
  ('CC(C)NC(=O)Nc1ccc(-c2nc(N3CCOCC3)c3ccc4c(ccn4C)c3n2)cc1 [Example 99]', 'Human mTOR (Homo sapiens)', 6.67),
  ('Cn1ccc2c3nc(-c4ccc(NC(=O)Nc5ccc(C(F)(F)F)cc5)cc4)nc(N4CCOCC4)c3ccc21 [Example 14]', 'Human mTOR (Homo sapiens)', 6.90),
  ('CS(=O)(=O)n1ccc2c3nc(-c4cccc(O)c4)nc(N4CCOCC4)c3ccc21 [Example 59]', 'Human mTOR (Homo sapiens)', 5.59),
  ('Cn1ccc2c3nc(-c4cccc(S(=O)(=O)NC5CC5)c4)nc(N4CCOCC4)c3ccc21 [Example 56]', 'Human mTOR (Homo sapiens)', 7.30),
  ('CNC(=O)Nc1ccc(-c2nc(N3CCOCC3)c3ccc4c(ccn4S(C)(=O)=O)c3n2)cc1 [Example 110]', 'Human mTOR (Homo sapiens)', 8.70),
  ('Cn1ccc2c3nc(-c4ccc(C(=O)O)cc4)nc(N4CCOCC4)c3ccc21 [Example 38]', 'Human mTOR (Homo sapiens)', 5.40),
  ('COc1ncc(-c2nc(N3CCOCC3)c3ccc4c(ccn4C)c3n2)cn1 [Example 50]', 'Human mTOR (Homo sapiens)', 5.63),
  ('O=S(=O)(C1CCNCC1)n1ccc2c3nc(-c4cccc(O)c4)nc(N4CCOCC4)c3ccc21 [Example 67]', 'Human mTOR (Homo sapiens)', 6.17);

(1) CC(C)(C)OC(=O)Cn1ccc2c3nc(-c4ccc(N)nc4)nc(N4CCOCC4)c3ccc21 [Example 60]
(2) CC(=O)Nc1ccc(-c2nc(N3CCOCC3)c3ccc4c(ccn4C)c3n2)cc1 [Example 16]
pIC50 comparison. Which is larger, 1 or 2 ? Identify your pick by its label.
2
(2: 6.43, 1: 5.87)

(1) COC(=O)c1ccc(-c2nc(N3CCOCC3)c3ccc4c(ccn4C)c3n2)cc1 [Example 36]
(2) CN(C)CCn1ccc2c3nc(-c4cccc(O)c4)nc(N4CCOCC4)c3ccc21 [Example 32]
(3) Cn1ccc2c3nc(-c4ccc(NC(=O)Nc5ccncc5)cc4)nc(N4CCOCC4)c3ccc21 [Example 11]
(4) CN(C)CCn1ccc2c3nc(-c4ccc(NC(=O)Nc5ccncc5)cc4)nc(N4CCOCC4)c3ccc21 [Example 33]
Arrange the 4 entries by pIC50 so the values rise. The labels, placed in the requested order, form the answer.
2, 1, 4, 3

====

# Test System: human SMG-1 (hSMG-1) (Homo sapiens)
# Sequence (Q96Q15 whole entry): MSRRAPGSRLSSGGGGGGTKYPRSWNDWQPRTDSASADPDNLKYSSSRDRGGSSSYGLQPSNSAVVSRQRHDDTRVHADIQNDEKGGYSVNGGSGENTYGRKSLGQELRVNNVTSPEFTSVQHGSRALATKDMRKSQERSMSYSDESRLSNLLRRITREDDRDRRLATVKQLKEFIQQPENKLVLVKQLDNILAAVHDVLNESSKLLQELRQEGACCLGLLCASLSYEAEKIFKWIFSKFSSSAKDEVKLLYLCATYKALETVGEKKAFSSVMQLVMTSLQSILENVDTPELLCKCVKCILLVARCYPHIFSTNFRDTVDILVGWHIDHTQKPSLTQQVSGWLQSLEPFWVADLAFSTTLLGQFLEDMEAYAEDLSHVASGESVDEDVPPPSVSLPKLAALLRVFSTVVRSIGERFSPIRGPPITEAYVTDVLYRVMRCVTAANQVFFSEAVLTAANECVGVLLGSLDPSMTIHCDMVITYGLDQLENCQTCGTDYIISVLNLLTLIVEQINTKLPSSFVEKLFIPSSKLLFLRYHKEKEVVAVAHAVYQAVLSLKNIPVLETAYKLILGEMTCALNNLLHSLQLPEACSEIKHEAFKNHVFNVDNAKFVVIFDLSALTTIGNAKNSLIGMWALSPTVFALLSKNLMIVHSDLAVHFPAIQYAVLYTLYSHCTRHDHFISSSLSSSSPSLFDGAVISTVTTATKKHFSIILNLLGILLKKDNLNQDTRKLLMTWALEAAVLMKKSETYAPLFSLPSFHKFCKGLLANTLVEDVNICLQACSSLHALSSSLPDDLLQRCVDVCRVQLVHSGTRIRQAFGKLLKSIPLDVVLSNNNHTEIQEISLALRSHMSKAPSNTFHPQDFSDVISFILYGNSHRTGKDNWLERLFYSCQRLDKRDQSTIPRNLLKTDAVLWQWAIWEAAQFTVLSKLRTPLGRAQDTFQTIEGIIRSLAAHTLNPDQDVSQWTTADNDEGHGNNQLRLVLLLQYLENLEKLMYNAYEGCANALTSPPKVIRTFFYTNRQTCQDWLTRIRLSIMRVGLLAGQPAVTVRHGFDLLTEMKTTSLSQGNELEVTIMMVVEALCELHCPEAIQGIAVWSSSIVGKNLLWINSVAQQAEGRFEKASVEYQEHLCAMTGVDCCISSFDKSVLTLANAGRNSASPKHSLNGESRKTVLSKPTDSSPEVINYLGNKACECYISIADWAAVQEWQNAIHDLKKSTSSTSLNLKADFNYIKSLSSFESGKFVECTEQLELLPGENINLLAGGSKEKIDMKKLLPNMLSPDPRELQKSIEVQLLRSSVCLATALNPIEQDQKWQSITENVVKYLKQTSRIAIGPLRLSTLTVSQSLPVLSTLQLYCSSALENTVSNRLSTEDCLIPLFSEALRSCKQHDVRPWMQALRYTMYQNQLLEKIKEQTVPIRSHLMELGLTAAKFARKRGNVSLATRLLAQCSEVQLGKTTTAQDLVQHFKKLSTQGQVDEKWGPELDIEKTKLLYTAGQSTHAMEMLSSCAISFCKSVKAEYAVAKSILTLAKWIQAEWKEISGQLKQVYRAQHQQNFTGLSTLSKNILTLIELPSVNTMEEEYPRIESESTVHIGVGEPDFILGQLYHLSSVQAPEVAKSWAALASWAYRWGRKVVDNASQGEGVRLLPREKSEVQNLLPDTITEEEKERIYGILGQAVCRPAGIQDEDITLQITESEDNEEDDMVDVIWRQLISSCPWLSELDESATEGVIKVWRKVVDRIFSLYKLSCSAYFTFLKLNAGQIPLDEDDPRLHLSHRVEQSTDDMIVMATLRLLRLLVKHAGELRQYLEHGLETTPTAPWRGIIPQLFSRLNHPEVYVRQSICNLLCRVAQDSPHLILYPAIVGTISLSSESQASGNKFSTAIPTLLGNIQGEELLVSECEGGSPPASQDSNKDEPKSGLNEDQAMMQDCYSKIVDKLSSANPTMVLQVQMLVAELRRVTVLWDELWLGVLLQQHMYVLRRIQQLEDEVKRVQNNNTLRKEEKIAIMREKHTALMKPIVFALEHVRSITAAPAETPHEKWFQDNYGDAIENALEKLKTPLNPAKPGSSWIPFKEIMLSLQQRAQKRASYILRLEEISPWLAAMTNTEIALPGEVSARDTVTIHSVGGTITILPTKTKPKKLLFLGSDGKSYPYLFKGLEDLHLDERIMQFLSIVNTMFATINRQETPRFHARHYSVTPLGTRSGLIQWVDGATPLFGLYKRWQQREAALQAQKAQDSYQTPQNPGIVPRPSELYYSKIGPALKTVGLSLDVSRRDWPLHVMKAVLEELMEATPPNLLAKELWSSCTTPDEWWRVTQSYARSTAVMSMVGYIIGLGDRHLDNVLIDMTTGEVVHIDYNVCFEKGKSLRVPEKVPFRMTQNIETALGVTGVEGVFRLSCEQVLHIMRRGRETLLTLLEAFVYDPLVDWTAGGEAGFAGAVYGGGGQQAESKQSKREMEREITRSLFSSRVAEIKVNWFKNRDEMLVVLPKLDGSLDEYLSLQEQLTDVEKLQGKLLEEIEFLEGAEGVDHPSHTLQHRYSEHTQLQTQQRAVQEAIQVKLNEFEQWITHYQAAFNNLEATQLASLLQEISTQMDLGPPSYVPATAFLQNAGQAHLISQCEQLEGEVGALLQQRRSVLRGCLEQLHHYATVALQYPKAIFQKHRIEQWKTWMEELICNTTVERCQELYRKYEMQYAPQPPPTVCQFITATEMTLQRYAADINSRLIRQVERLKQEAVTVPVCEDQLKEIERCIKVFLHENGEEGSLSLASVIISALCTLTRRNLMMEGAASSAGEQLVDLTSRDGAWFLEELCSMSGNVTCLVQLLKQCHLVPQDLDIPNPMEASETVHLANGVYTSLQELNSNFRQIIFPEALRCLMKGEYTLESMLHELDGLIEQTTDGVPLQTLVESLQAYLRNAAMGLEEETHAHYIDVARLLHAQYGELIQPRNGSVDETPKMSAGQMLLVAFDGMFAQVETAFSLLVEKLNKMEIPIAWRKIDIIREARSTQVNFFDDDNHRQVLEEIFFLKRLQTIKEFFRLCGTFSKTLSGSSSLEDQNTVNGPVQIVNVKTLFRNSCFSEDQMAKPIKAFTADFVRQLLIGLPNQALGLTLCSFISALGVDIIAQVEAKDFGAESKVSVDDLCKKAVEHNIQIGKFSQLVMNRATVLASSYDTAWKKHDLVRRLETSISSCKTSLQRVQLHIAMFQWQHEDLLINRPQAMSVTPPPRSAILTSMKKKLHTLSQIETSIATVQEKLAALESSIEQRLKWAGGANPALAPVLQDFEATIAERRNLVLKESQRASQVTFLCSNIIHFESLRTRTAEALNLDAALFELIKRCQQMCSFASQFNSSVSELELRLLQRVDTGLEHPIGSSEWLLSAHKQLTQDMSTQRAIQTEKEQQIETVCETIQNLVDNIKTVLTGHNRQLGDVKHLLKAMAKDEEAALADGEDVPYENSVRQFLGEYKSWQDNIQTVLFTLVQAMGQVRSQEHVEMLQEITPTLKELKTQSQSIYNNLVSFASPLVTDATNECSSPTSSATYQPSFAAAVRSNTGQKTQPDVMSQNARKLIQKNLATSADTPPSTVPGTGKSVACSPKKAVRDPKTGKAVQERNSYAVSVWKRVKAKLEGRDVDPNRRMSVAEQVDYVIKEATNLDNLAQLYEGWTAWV
# Test: hSMG-1 kinase assay (DELFIA)
# Test Conditions: read-out: hSMG1 IC50
pIC50: −log10 of the molar value.
Value Kind: pIC50

INSERT INTO results (item_smiles, test_system, value_kind, reading) VALUES
  ('CCC(=O)Nc1ccc(-c2nc(N3CCOCC3)c3ccc4c(ccn4S(C)(=O)=O)c3n2)cc1', 'human SMG-1 (hSMG-1) (Homo sapiens)', 'pIC50', 5.21),
  ('CCCNC(=O)Nc1ccc(-c2nc(N3CCOCC3)c3ccc4c(ccn4S(C)(=O)=O)c3n2)cc1', 'human SMG-1 (hSMG-1) (Homo sapiens)', 'pIC50', 6.85);

(A) CCNC(=O)Nc1ccc(-c2nc(N3CCOCC3)c3ccc4c(ccn4S(C)(=O)=O)c3n2)cc1
(B) CC(C)NC(=O)Nc1ccc(-c2nc(N3CCOCC3)c3ccc4c(ccn4C)c3n2)cc1
Dear colleague, could you let me know whether A or B has the lower recorded pIC50? Thanks. Identify your pick by its label.
B
(B: 4.84, A: 6.70)

====

The listing below reports IC50 for molecules tested on PI3K-gamma (Homo sapiens, UniProt P48736).
Sequence (P48736 whole entry, species assumed): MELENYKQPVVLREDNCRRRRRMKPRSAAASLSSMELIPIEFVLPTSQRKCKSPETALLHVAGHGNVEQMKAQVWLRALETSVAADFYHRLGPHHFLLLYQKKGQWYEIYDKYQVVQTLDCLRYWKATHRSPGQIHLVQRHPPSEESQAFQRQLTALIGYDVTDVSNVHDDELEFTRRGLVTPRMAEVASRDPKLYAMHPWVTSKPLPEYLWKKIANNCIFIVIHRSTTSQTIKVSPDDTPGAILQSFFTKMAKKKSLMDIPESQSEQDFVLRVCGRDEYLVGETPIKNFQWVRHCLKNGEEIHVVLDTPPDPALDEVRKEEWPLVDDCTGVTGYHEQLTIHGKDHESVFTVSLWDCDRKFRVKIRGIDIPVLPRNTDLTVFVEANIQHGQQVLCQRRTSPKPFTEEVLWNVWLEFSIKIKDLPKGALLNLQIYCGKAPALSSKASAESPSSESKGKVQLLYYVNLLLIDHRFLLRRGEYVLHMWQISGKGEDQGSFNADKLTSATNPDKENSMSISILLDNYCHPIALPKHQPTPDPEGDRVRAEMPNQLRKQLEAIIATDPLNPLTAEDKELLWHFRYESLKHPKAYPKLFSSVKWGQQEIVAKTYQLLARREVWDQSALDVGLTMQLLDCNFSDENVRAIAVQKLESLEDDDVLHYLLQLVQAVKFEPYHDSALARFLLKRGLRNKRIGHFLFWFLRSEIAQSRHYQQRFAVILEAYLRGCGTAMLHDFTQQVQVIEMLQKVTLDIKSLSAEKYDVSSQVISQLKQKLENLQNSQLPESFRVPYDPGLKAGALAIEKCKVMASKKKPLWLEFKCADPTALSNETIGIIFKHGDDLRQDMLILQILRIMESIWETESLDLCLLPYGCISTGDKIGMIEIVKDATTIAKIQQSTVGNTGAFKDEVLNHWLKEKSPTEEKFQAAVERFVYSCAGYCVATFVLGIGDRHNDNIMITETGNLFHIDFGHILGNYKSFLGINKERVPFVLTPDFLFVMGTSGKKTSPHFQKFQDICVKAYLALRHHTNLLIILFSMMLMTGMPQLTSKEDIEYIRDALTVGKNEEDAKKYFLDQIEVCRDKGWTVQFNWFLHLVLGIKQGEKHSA
Value Kind: IC50 (µM)

Some molecules with known IC50 results, for comparison:
INSERT INTO measurements (item_smiles, value_kind, reading) VALUES
  ('CC(=O)NCc1cccc(-c2nc(N3CCOCC3)c3ccc4c(ccn4C)c3n2)c1', 'IC50', 9.5),
  ('Cn1ccc2c3nc(-c4ccc(NC(=O)c5ccncc5)cc4)nc(N4CCOCC4)c3ccc21', 'IC50', 5.62);

(A) CN(C)S(=O)(=O)Nc1cccc(-c2nc(N3CCOCC3)c3ccc4c(ccn4C)c3n2)c1
(B) O=S(=O)(c1ccccc1)n1ccc2c3nc(-c4cccc(CO)c4)nc(N4CCOCC4)c3ccc21
(C) OCc1cccc(-c2nc(N3CCOCC3)c3ccc4[nH]ccc4c3n2)c1
Kindly order the items shown according to IC50, from the highest value down. As an answer, provide the labels arranged in the order called for.
A, C, B
(A: 6.16 µM, C: 3.58 µM, B: 2.07 µM)

====

# Test System: Human mTOR (Homo sapiens, UniProt P42345)
# Test: mTOR kinase assay (DELFIA format, purified enzyme)
# Assay type: biochemical
# Design: FLAG
# Test Conditions: read-out: TOR Kinase IC50
Value Kind: IC50 (nM)

# annotated cases, reported IC50 shown
INSERT INTO assay_data (compound, test_system, value_kind, unit_text, reading) VALUES
  ('O=Cc1c[nH]c2ccc3c(N4CCOCC4)nc(-c4cccc(O)c4)nc3c12 [Example 82]', 'Human mTOR (Homo sapiens, UniProt P42345)', 'IC50', 'nM', 16),
  ('c1cc(-c2nc(N3CCOCC3)c3ccc4[nH]ccc4c3n2)c2cn[nH]c2c1 [Example 80]', 'Human mTOR (Homo sapiens, UniProt P42345)', 'IC50', 'nM', 2080),
  ('O=S(=O)(c1ccccc1)n1ccc2c3nc(-c4cccc(O)c4)nc(N4CCOCC4)c3ccc21 [Example 69]', 'Human mTOR (Homo sapiens, UniProt P42345)', 'IC50', 'nM', 1110),
  ('Cn1ccc2c3nc(-c4ccc(NC(=O)Nc5ccccn5)cc4)nc(N4CCOCC4)c3ccc21 [Example 9]', 'Human mTOR (Homo sapiens, UniProt P42345)', 'IC50', 'nM', 75),
  ('Cn1ccc2c3nc(-c4cccc(C(N)=O)c4)nc(N4CCOCC4)c3ccc21 [Example 39]', 'Human mTOR (Homo sapiens, UniProt P42345)', 'IC50', 'nM', 1720),
  ('CN1CCN(C(=O)Nc2ccc(-c3nc(N4CCOCC4)c4ccc5c(ccn5C)c4n3)cc2)CC1 [Example 6]', 'Human mTOR (Homo sapiens, UniProt P42345)', 'IC50', 'nM', 2550);

(1) CCOC(=O)Nc1cccc(-c2nc(N3CCOCC3)c3ccc4c(ccn4C)c3n2)c1 [Example 124]
(2) Cn1ccc2c3nc(-c4ccc(NC(=O)NC5CCCCC5)cc4)nc(N4CCOCC4)c3ccc21 [Example 108]
Which has the smaller recorded IC50, 1 or 2 ? Answer with the label corresponding to your selection.
1

====

# Test System: Human mTOR (Homo sapiens)
# Test: mTOR kinase assay (DELFIA format, purified enzyme)
# Format: biochemical
# Design: FLAG
# Test Conditions: read-out: TOR Kinase IC50
pIC50: −log10 of the molar value.
Value Kind: pIC50

INSERT INTO assay_data (molecule, value_kind, reading) VALUES
  ('Cn1ccc2c3nc(-c4cccc(O)c4)nc(N4CCOCC4)c3ccc21 [Example 35]', 'pIC50', 6.39),
  ('Nc1ncc(-c2nc(N3CCOCC3)c3ccc4[nH]ccc4c3n2)cn1 [Example 58]', 'pIC50', 6.81),
  ('Cn1ccc2c3nc(-c4cc(O)ccc4Cl)nc(N4CCOCC4)c3ccc21 [Example 53]', 'pIC50', 6.04);

(a) CN(C)CCn1ccc2c3nc(-c4ccc(NC(=O)Nc5cccnc5)cc4)nc(N4CCOCC4)c3ccc21 [Example 111]
(b) Cn1ccc2c3nc(-c4ccc(NC(=O)Nc5cccc(Cl)c5)cc4)nc(N4CCOCC4)c3ccc21 [Example 13]
Field: lower pIC50 | Options: a / b Choose, then provide that item's label.
b

====

# Test System: UniProt P42345
# Test: mTOR kinase assay (DELFIA format, purified enzyme)
# Assay type: biochemical
# Set-up: FLAG
# Test Conditions: read-out: TOR Kinase IC50
Value Kind: IC50 (µM)

INSERT INTO measurements (item_smiles, reading) VALUES
  ('COC(=O)Nc1ccc(-c2nc(N3CCOCC3)c3ccc4c(ccn4CCN(C)C)c3n2)cc1', 2),
  ('Cn1ccc2c3nc(-c4ccc(NC(=O)NC5CCCC5)cc4)nc(N4CCOCC4)c3ccc21', 2.05),
  ('CN(C)CCNC(=O)Nc1ccc(-c2nc(N3CCOCC3)c3ccc4c(ccn4C)c3n2)cc1', 2.05);
